molecular target: recombinant Mcl-1 (residues 172-327) (Homo sapiens (Human)); experiment: Bak peptide binding assay, fluorescence polarization anisotropy competition (FITC-Bak), Mcl-1; conditions: Table 3, binned ranges; FITC-Bak peptide 10 nM, Mcl-1 14 nM; read-out: Ki for inhibition of Mcl-1;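 also: displacement of labeled Bak peptide read by fluorescence anisotropy, 10-point threefold dilutions from 20 µM top dose in 5% DMSO, 90 min incubation at room temperature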
Sequence (Q07820 172-327): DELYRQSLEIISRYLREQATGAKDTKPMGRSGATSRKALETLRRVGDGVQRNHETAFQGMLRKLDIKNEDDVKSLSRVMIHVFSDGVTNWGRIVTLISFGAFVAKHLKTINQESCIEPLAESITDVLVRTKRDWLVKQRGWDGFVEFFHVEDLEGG
Listing of entries alongside the reported Ki.
assayReadout: Ki

{"molecule": "O=C(O)Cc1cn(CCCOc2cccc3ccccc23)c2ccccc12", "assayReadout": "Ki", "assayValue": "1000 to 9990 nM"}
{"molecule": "Cc1cc(OCCCc2c(C)n(Cc3ccc(CC(=O)O)cc3)c3c(-c4c(C)nn(C)c4C)c(Cl)ccc23)cc(C)c1Cl", "assayReadout": "Ki", "assayValue": "≤ 100 nM"}
{"molecule": "Cc1cc(OCCCc2c(C)n(CCC(=O)O)c3c(-c4ccnn4C)cccc23)cc(C)c1Cl", "assayReadout": "Ki", "assayValue": "≤ 100 nM"}
{"molecule": "Cc1cc(OCCCc2c(C(F)(F)F)n(Cc3ccc(CC(=O)O)cc3)c3c(-c4c(C)nn(C)c4C)cccc23)cc(C)c1Cl", "assayReadout": "Ki", "assayValue": "≤ 100 nM"}
{"molecule": "O=C(O)Cn1cc(CCCOc2cccc3ccccc23)c2c(Cl)cccc21", "assayReadout": "Ki", "assayValue": "1000 to 9990 nM"}
{"molecule": "Cc1cc(OCCCc2c(C)n(Cc3cccc(C(=O)NS(=O)(=O)c4ccccc4)c3)c3c(-c4c(C)nn(C)c4C)cccc23)cc(C)c1Cl", "assayReadout": "Ki", "assayValue": "≤ 100 nM"}
{"molecule": "CS(=O)(=O)NC(=O)CCn1cc(CCCOc2cccc3ccccc23)c2ccc(Cl)cc21", "assayReadout": "Ki", "assayValue": "501 to 999 nM"}
{"molecule": "Cc1cc(OCCCc2c(C(F)(F)F)n(CCC(=O)O)c3ccccc23)cc(C)c1Cl", "assayReadout": "Ki", "assayValue": "≤ 100 nM"}
{"molecule": "Cc1cc(OCCCc2c(C(F)(F)F)n(Cc3ccc(C(=O)O)cc3)c3c(-c4c(C)nn(C)c4C)cccc23)cc(C)c1Cl", "assayReadout": "Ki", "assayValue": "≤ 100 nM"}
{"molecule": "Cc1cc(OCCCc2c(C)n(CCC(=O)O)c3c(-c4cccnc4C)cccc23)cc(C)c1Cl", "assayReadout": "Ki", "assayValue": "≤ 100 nM"}
{"molecule": "Cc1cc(OCCCc2c(C)n(Cc3ccc(C(=O)O)cn3)c3c(-c4c(C)nn(C)c4C)c(Cl)ccc23)cc(C)c1Cl", "assayReadout": "Ki", "assayValue": "≤ 100 nM"}
{"molecule": "Cc1cc(OCCCc2c(C)n(CCC(=O)O)c3c(-c4c(C)nn(CC5CCOC5)c4C)cccc23)cc(C)c1Cl (stereo not shown)", "assayReadout": "Ki", "assayValue": "≤ 100 nM"}
{"molecule": "Cc1cc(OCCCc2cn(C(C)C(=O)NS(C)(=O)=O)c3ccccc23)cc(C)c1Cl (racemic)", "assayReadout": "Ki", "assayValue": "501 to 999 nM"}
{"molecule": "Cc1cc(OCCCc2c(C)n(Cc3ccc(C(=O)NS(C)(=O)=O)cc3)c3c(-c4c(C)nn(C)c4C)cccc23)cc(C)c1Cl", "assayReadout": "Ki", "assayValue": "≤ 100 nM"}
{"molecule": "Cc1cc(OCCCc2c(C)n(CCC(=O)NS(=O)(=O)c3ccc(Oc4ccccc4)cc3)c3c(-c4c(C)nn(C)c4C)cccc23)cc(C)c1Cl", "assayReadout": "Ki", "assayValue": "≤ 100 nM"}
{"molecule": "Cc1cc(OCCCc2c(C(F)(F)F)n(Cc3ccc(C(=O)O)cn3)c3c(Br)cccc23)cc(C)c1Cl", "assayReadout": "Ki", "assayValue": "1000 to 9990 nM"}
{"molecule": "Cc1cc(OCCCc2c(C)n(CCC(=O)NS(C)(=O)=O)c3c(-c4c(C)nn(C)c4C)cccc23)cc(C)c1Cl", "assayReadout": "Ki", "assayValue": "≤ 100 nM"}
{"molecule": "Cc1cc(OCCCc2c(C)n(CC(=O)O)c3c(-c4c(C)noc4C)cccc23)cc(C)c1Cl", "assayReadout": "Ki", "assayValue": "101 to 299 nM"}
{"molecule": "O=C(O)Cn1cc(CCCOc2cccc3ccccc23)c2ccc(Cl)cc21", "assayReadout": "Ki", "assayValue": "1000 to 9990 nM"}
{"molecule": "COc1ccc(Oc2ccc(S(=O)(=O)NC(=O)CCn3cc(CCCOc4cc(C)c(Cl)c(C)c4)c4ccc(Cl)cc43)cc2)cc1", "assayReadout": "Ki", "assayValue": "101 to 299 nM"}
{"molecule": "Cc1cc(OCCCc2c(C)n(Cc3cccc(C(=O)NS(=O)(=O)c4cccnc4)c3)c3c(-c4c(C)nn(C)c4C)cccc23)cc(C)c1Cl", "assayReadout": "Ki", "assayValue": "101 to 299 nM"}
{"molecule": "Cc1cc(OCCCc2cn(CCC(=O)O)c3c(-c4cn[nH]c4)cccc23)cc(C)c1Cl", "assayReadout": "Ki", "assayValue": "101 to 299 nM"}
{"molecule": "Cc1cc(OCCCc2c(C)n(CCC(=O)NS(=O)(=O)c3ccccc3[N+](=O)[O-])c3c(-c4c(C)nn(C)c4C)cccc23)cc(C)c1Cl", "assayReadout": "Ki", "assayValue": "≤ 100 nM"}
{"molecule": "Cc1cc(OCCCc2c(C)n(CCC(=O)O)c3c(-c4c(C)nn(C)c4C)cccc23)cc(C)c1Cl", "assayReadout": "Ki", "assayValue": "≤ 100 nM"}
{"molecule": "Cc1cc(OCCCc2c(C)n(CCC(=O)NS(=O)(=O)c3ccccn3)c3c(-c4c(C)nn(C)c4C)cccc23)cc(C)c1Cl", "assayReadout": "Ki", "assayValue": "≤ 100 nM"}
{"molecule": "O=C(O)Cn1cc(CCCOc2cccc3ccccc23)c2ccccc21", "assayReadout": "Ki", "assayValue": "1000 to 9990 nM"}
{"molecule": "Cc1cc(OCCCc2c(C(F)(F)F)n(Cc3cccc(C(=O)O)c3)c3c(-c4c(C)nn(C)c4C)c(Cl)ccc23)cc(C)c1Cl", "assayReadout": "Ki", "assayValue": "≤ 100 nM"}
{"molecule": "Cc1cc(OCCCc2c(C)n(Cc3ccc(C(=O)NS(=O)(=O)c4ccccc4)cc3)c3c(-c4c(C)nn(C)c4C)cccc23)cc(C)c1Cl", "assayReadout": "Ki", "assayValue": "≤ 100 nM"}
